Test system: Malme-3M
Assay: Growth inhibition of human Malme-3M cells assessed as cell growth at 10 uM incubated for 48 hrs by sulforhodamine B assay relative to control
Assay type: functional
Details: read-out: Activity
observable: growth at 10 µM (%)
Please reply with the bare figure in % and do not write the unit itself.

In the examples that follow, each entry is paired with its recorded growth at 10 µM.
[
  {
    "structure_string": "Cc1cc(C)cc(S(=O)(=O)n2ccc(-c3ccc4c(c3)CCC(C)(C)O4)n2)c1",
    "observable": "growth at 10 µM",
    "recorded_measurement": 82.9
  },
  {
    "structure_string": "Cc1ccc(S(=O)(=O)n2ccc(-c3ccc(OCCCF)cc3)n2)cc1",
    "observable": "growth at 10 µM",
    "recorded_measurement": 101
  },
  {
    "structure_string": "COc1ccc(S(=O)(=O)n2ccc(-c3ccc4c(c3)CCC(C)(C)O4)n2)cc1OC",
    "observable": "growth at 10 µM",
    "recorded_measurement": 114
  },
  {
    "structure_string": "COc1ccc(-c2ccn(S(=O)(=O)c3ccc(OC)cc3)n2)cc1",
    "observable": "growth at 10 µM",
    "recorded_measurement": 112
  }
]

Return reported growth at 10 µM; argument: Cc1cccc(NC(=O)c2sc3nc4c(cc3c2N)C(=O)CCC4)c1
14
